- assay_notes: Selectivity index, ratio of CC50 for african green monkey Vero cells to CC50 for human HeLa cells
- Assay type: functional
Measured Selectivity Index of individual entries
Lab note: jot down the number only; don't add units.

Take a look at these entries with their results.
compound	recorded_result
COC(=O)[C@]1(C)CCC[C@]2(C)C3=C(CC[C@@H]12)CC(=C(C)C)CC3	0.4
CC[C@]1(O)C[C@H]2CN(CCc3c([nH]c4ccccc34)[C@@](C(=O)OC)(c3cc4c(cc3OC)N(C=O)[C@H]3[C@@](O)(C(=O)OC)[C@H](OC(C)=O)[C@]5(CC)C=CCN6CC[C@]43[C@@H]65)C2)C1 [VINCRISTINE]	22
CC(C)=C1CCC2=C(CC[C@H]3[C@](C)(CO)CCC[C@]23C)C1	1

Query: Give the reported value of Selectivity Index for this record: CC(C)C1=CC2=CC[C@@H]3[C@](C)(CCC[C@@]3(C)C(=O)O)[C@H]2CC1 [ABIETIC ACID]
Result: 3.5

----------
- Test system: HeLa
- assay_notes: Cytotoxicity against human HeLa cells
- Assay type: cell-based
measured_quantity: CC100 (µg/mL)
Numbers only here, please. The scale is µg/mL.

Query: Please give the documented CC100 of CC(C)C1=CC2=CC[C@H]3[C@](C)(CO)CCC[C@]3(C)[C@H]2CC1
Result: 25

Query: Note down CC100 recorded for CC(C)=C1CCC2=C(CC[C@H]3[C@](C)(CO)CCC[C@]23C)C1
Result: 100

Query: State its CC100 for this molecule: COC(=O)[C@]1(C)CCC[C@]2(C)C3=C(CC[C@@H]12)CC(=C(C)C)CC3
Result: 100

Query: In one line, give reported CC100 of the entry COC(=O)[C@]1(C)CCC[C@@]2(C)[C@H]1CC=C1C=C(C(C)C)CC[C@@H]12 [METHYL ABIETATE] .
Result: 50

----------
- assay_notes: Selectivity index, ratio of CC50 for african green monkey Vero cells to CC50 for human HeLa cells
- Type: functional
Note to self: Selectivity Index under 2 means Satisfied, ties and anything higher get Not satisfied.

Consider the following illustrative entries.
                                   molecule    class_label
0  CC(C)=C1CCC2=C(CC[C@H]3[C@](C)(C=O)CCC[C@]23C)C1      Satisfied
1  COC(=O)[C@]1(C)CCC[C@@]2(C)[C@H]1CC=C1C=C(C(C)C)CC[C@@H]12 [METHYL ABIETATE]  Not satisfied
2  CC(C)C1=CC2=CC[C@H]3[C@](C)(CO)CCC[C@]3(C)[C@H]2CC1  Not satisfied
3  CC(C)=C1CCC2=C(CC[C@H]3[C@](C)(C(=O)O)CCC[C@]23C)C1      Satisfied

Query: Check if Selectivity Index falls below 2 for CC(C)C1=CC2=CC[C@@H]3[C@](C)(CCC[C@@]3(C)C=O)[C@H]2CC1 .
Result: Not satisfied

----------
- Tested on: HeLa
- assay_notes: Cytotoxicity against human HeLa cells
- Assay type: cell-based
Recorded CC100 for the following compounds

In [3]: df
Out[3]:
                            smiles_notation  recorded_result
0  CC(C)=C1CCC2=C(CC[C@H]3[C@](C)(C=O)CCC[C@]23C)C1      > 100 µg/mL

Here's the next entry for you.
Query: For the compound Nc1nc2c(ncn2COCCO)c(=O)[nH]1 , give its reported CC100.
Result: > 600 µg/mL

----------
- System: HeLa
- assay_notes: Cytotoxicity against human HeLa cells
- Type: cell-based
measured_quantity: CC100

Check out these entries, answers already filled in.
>>> print(df.to_string())
                            smiles_notation  measured_quantity  recorded_result
0  CC(C)C1=CC2=CC[C@@H]3[C@](C)(CCC[C@@]3(C)C=O)[C@H]2CC1              CC100       > 50 µg/mL
1  CC(C)=C1CCC2=C(CC[C@H]3[C@](C)(C(=O)O)CCC[C@]23C)C1              CC100      > 100 µg/mL

We next turn to a different compound, shown below.
Query: Output measured CC100 for this item: CC(C)C1=CC2=CC[C@@H]3[C@](C)(CCC[C@@]3(C)C(=O)O)[C@H]2CC1
Result: > 100 µg/mL
